# protocol summary: protein stability index of a GFP-peptide fusion (GPS, HEK-293T) (PSI 1-6); higher = more stable;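 note: 24-mer peptide tiles fused after GFP, lentivirally expressed, FACS-sorted into six equal bins by GFP/DsRed ratio, decoded by Illumina sequencing, PSI is the read-weighted mean bin number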
# particulars: treatment: DMSO; c terminus: a fixed tail appended
Measured protein stability index, listed per entry for reference.
I'd appreciate a reply containing only the number, no unit.

1) FEEYALVNQDILENKESWDKILAL [PRIM1] : 3.3
2) DKLEYLDEKQRDPRIEASKVLLCH [NET1] : 4.09
3) DFHQGLLSFYNARTKQVLHTFKTR [FSD1] : 2.2
4) VLFTSDACGLSDVAHVESLQEKSQ [NR2F2] : 3.93
5) PRSAEPGYLVTKVVAVDRDSGQNA [PCDHGA10] : 4.77

Exercise: For the sequence LQRLSHSGSRVRVGFRLCNSTGGD [SCNN1D] , what protein stability index is on record?
Solution: 3.14

Exercise: For the sequence KVIERGERLDELQDKSESLSDNAT [VAMP4] , what protein stability index is on record?
Solution: 5.38

Exercise: For the sequence DDILYHVKGMQRIVNQWSEKFSDE [DLC1] , what protein stability index is on record?
Solution: 3.52

Exercise: For the sequence RVDVDTYLTSQLPPLREIILGPSS [NFE2L1] , what protein stability index is on record?
Solution: 2.67

###

# protocol summary: protein stability index of a GFP-peptide fusion (GPS, HEK-293T) (PSI 1-6); higher = more stable
# particulars: treatment: DMSO; c terminus: a fixed tail appended
measured endpoint: protein stability index
I'd appreciate a reply containing only the number, no unit.

1) EKETMQFLNDRLANYLEKVRQLER [KRT36] : 2.87

Exercise: For the sequence NEVLSSDILPRWAIIGWLLTTCTS [INTS3] , what protein stability index is on record?
Solution: 2.99

Exercise: For the sequence ADKYALERLKVMCEEALCSNLSVE [SPOPL] , what protein stability index is on record?
Solution: 3.56

Exercise: For the sequence LASRIRSNKKMLLLVGGLPPGPDR [KLHL14] , what protein stability index is on record?
Solution: 2.32

###

# protocol summary: protein stability index of a GFP-peptide fusion (GPS, HEK-293T) (PSI 1-6); higher = more stable
# particulars: treatment: DMSO; c terminus: a fixed tail appended
Mark label 0 for protein stability index values under 3, and label 1 for everything at or above.

1. SLRIALSEHLKQRREVAKTVFCLV [EDNRA] : label 0
2. IQEQPGQEQVAGGEAQPGLPQEDP [FEM1A] : label 1
3. TNYNNVCRKFPRDMKAMSPENQEY [RHOBTB2] : label 1

Exercise: Tell me whether protein stability index is at least 3 here: AYRCGSGMQMAEDSKSLKTHQTQP [NET1]
Solution: label 1

Exercise: Tell me whether protein stability index is at least 3 here: PPLRVIVKDALFCSCLSDILRFIY [RHOBTB3]
Solution: label 0

Exercise: Tell me whether protein stability index is at least 3 here: SRPVKGQVVTVHLQTSLENGTRVQ [FKBP8]
Solution: label 1

Exercise: Tell me whether protein stability index is at least 3 here: YLPKNTHPFLYLSLEISPQNVDVN [MLH1]
Solution: label 1

Exercise: Tell me whether protein stability index is at least 3 here: SFEAPLTPLIQQRARDSPEPGAGL [PSD2]
Solution: label 1

Exercise: Tell me whether protein stability index is at least 3 here: ELRNVQDVVEDYKKRYEEEINKRT [KRT71]
Solution: label 1
